B1: F1*; the commonest letter at each place (parent)
chain: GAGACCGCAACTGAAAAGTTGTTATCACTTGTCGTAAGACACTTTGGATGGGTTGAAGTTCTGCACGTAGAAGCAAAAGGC

# Variants of: B1
# PROCEDURE SUMMARY: fraction ligated after 30 min (ligated reads / total reads); higher = more ligase activity
# TEST CONDITIONS: with F1*sub RNA substrate (template-directed ligation), 42 °C
PROPERTY LABEL: fraction ligated

T30G G31A ... 0.853
G31A G34A ... 0.804
G38C A56C ... 0.209
A27C C42T ... 0.816
A27C G55C ... 0.355
C26G C42T ... 0.76
C28A T35A ... 0.792
T30C G46C ... 0.759
A36T A48G ... 0.781
A24C T30C ... 0.168
A39C G47C ... 0.349
T44G G46A ... 0.818
G31C C33T ... 0.777
T29C T44C ... 0.822
A27G G47T ... 0.329
A24C A41T ... 0.614
C33T A41G ... 0.8
T29A T44C ... 0.825
